assay_target: T1, T cell receptor (TCR) Vγ9 (TRGV9) (human, UniProt Q99603 21-122); note: unit not given here
T1 chain (looked up): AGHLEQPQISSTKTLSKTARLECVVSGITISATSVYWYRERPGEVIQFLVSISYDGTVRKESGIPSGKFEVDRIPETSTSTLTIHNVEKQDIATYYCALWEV
experiment_description: cell-based or functional assay
measured_property: Granzyme B, Luminex (supernatant)
// keep it numeric: no unit symbol after the value

Examples with their reported Granzyme B, Luminex (supernatant) follow.
VG9B98 (antibody, human IgG1, kappa, V domains shown) VH: EVQLVQSGGDLVKSGGSLRLSCAASGFTFSSYSMYWVRQAPGKGLEWVSSIGSSSTYIFYADSVKGRFTISRDNAMTSLYLQMNRLGAEDSAVYYCARDGELGPFEYWGQGTLVTVSS VL: EIVLTQSPGTLSLSPGERATLSCRASQSVSTSYLAWFQQKPGQAPRLLIFGTSSRATGIPDRFSGSGSGTDFTLTISRLEPEDFAVYHCLQYGRSPLTFGGGTKVDIKR : 1420
VG9B469 (antibody, human IgG1, kappa, V domains shown) VH: EVQLVESGGGLVKPGGSLRLSCAASGFTFSHYDMNWVRQAPGKGLEWVSSISSSSSYIFYADSVKGRFTISRDNAKNSLLLQMNSLRAEDTAVYHCARDRGVGDTSDYYSFGLDVWGQGTMVTVSS VL: DIVMTQSPGTLSLSPGERATLSCRASQNVSSTYLAWYQQKPGQAPRLLIYGACSRATGIPDRFSGSGSGTDFTLTISRLEPEDYAVYYCQQYGSSPPYTFGRGTKLEIKR : 3700
VG9B73 (antibody, human IgG1, kappa, V domains shown) VH: EVQLVQSGGGLVKPGGSLRLSCAASGFTFSNYDMNWVRQAPGKGLEWVSSISSSSSYIYYADSVKGRFTISRDNARNSLFLQMSSLRAEDTAVYYCAREIGVTGTTYYQDYGMDVWGQGTTVTVSS VL: EIVMTQSPGTLSLSPGERATLSCRASQSFSSNYLAWYQQKPGQAPRLLIYGASSRATGIPDRFSGSGSGTDFTLTISRLEPEDFALYYCQQYGSSPPFTFGQGTKVEIKR : 3370

What does the record list as Granzyme B, Luminex (supernatant) for VG9B104 (antibody, human IgG1, kappa, V domains shown) VH: EVQLVESGGGLVKPGGSLRLSCAASGFTFSVYSMNWVRQAPGKGLEWVSSIGSSSSYIFYADSVKGRFTISRDNAKNSLYLQMNSLRAEDTAVYYCGRDHDYGGLDYWGQGTLVTVSS VL: EIVLTQSPGTLSLSPGERATLSCRASQSVSSSYLAWYQQKPGQAPRLLIYGPSNRATDIPDRFSGTGSGTDFTLTISRLEPEDFAVYYCQQYGRSPLTFGGGTKVEIKR ?
5290
